{"smiles_text": "CCn1c(-c2ccc3c(c2)CCN3S(C)(=O)=O)c(C#N)c2ccc(OC)cc21", "melting point": "188 to 194 °C"}
{"smiles_text": "CCn1c(C#Cc2ccc(C(F)(F)F)cc2)c(C#N)c2ccc(O)cc21", "melting point": "157 to 160 °C"}
{"smiles_text": "COc1ccc2c(C#N)c(-c3cccc(NC(=O)OC(C)C)c3)n(C3CCCC3)c2c1", "melting point": "175 to 180 °C"}
{"smiles_text": "CCOc1ccc2c(C#N)c(-c3ccc(NS(C)(=O)=O)cc3)n(CC)c2c1", "melting point": "163 to 165 °C"}
{"smiles_text": "CCn1c(-c2ccc(NS(=O)(=O)CC)cc2)c(C#N)c2ccc(C(F)(F)F)cc21", "melting point": "223 to 225 °C"}
{"smiles_text": "CCS(=O)(=O)Nc1ccc(-c2c(C#N)c3ccc(OC)cc3n2CC2CC2)cc1", "melting point": "198 to 200 °C"}
{"smiles_text": "CCn1c(-c2ccc(N3CCCC3=O)cc2)c(C#N)c2ccc(OC(C)C)cc21", "melting point": "173 to 174 °C"}
{"smiles_text": "CCn1c(-c2ccc(NS(C)(=O)=O)cc2)c(C#N)c2ccc(OCCF)cc21", "melting point": "171 to 174 °C"}

Reference source for all entries: patent US8013006B2
